List of Inhibition (%) of pressor response to angiotensin I values.
# System: angiotensin I-converting enzyme
# ASSAY INFO: Percent inhibition of pressor response to angiotensin I in unanesthetized rats after oral administration (ACE inhibition in vivo)
# Design: species or system Male Wistar strain rats
# REPORTED CONDITIONS: 15 min after oral dose; mg/kg: 2 1.8, 2A 1.3, 2B 1.8, 22 1.5, 22A 1.0, 22B 1.4, 32 1.7, 32C 1.3, 64 1.9
Phrase the answer as number then unit, nothing more needed.

Q: GET /values?readout=Inhibition (%) of pressor response to angiotensin I&system=angiotensin I-converting enzyme&item= C[C@H](CSC(=O)c1ccccc1)C(=O)N1C(C(=O)O)CCC1c1ccccc1O (stereo partly drawn)
Ans: 36.8%

Q: GET /values?readout=Inhibition (%) of pressor response to angiotensin I&system=angiotensin I-converting enzyme&item= O=C(O)[C@@H]1CSC(c2ccccc2O)N1C(=O)CCS (stereo partly drawn) [Compound 32C]
Ans: 62.9%

Q: GET /values?readout=Inhibition (%) of pressor response to angiotensin I&system=angiotensin I-converting enzyme&item= Cc1ccc(C(=O)SC[C@@H](C)C(=O)N2C(C(=O)O)CCC2c2ccccc2O)cc1 (stereo partly drawn)
Ans: 58.1%

Q: GET /values?readout=Inhibition (%) of pressor response to angiotensin I&system=angiotensin I-converting enzyme&item= C[C@H](CS)C(=O)N1CSC[C@H]1C(=O)O [Compound 22A]
Ans: 51.5%

Q: GET /values?readout=Inhibition (%) of pressor response to angiotensin I&system=angiotensin I-converting enzyme&item= "C[C@H](CSC(=O)c1ccccc1)C(=O)N1CSC[C@H]1C(=O)OCOC(=O)C(C)(C)C"
Ans: 59.5%

Q: GET /values?readout=Inhibition (%) of pressor response to angiotensin I&system=angiotensin I-converting enzyme&item= "Cc1ccc(C(=O)SC[C@@H](C)C(=O)N2CSC[C@H]2C(=O)O)cc1"
Ans: 60.4%

***
Q: GET /values?readout=Inhibition (%) of pressor response to angiotensin I&system=angiotensin I-converting enzyme&item= CC(=O)Oc1ccccc1C1SC[C@@H](C(=O)O)N1C(=O)CCSC(C)=O (stereo partly drawn)
Ans: 55.3%

Q: GET /values?readout=Inhibition (%) of pressor response to angiotensin I&system=angiotensin I-converting enzyme&item= C[C@H](CSC(=O)c1ccccc1)C(=O)N1CSC[C@H]1C(=O)O [Compound 22B]
Ans: 60.7%

Q: GET /values?readout=Inhibition (%) of pressor response to angiotensin I&system=angiotensin I-converting enzyme&item= C[C@H](CS)C(=O)N1C(C(=O)O)CCC1c1ccccc1O (stereo partly drawn)
Ans: 40.0%

---

# Tested on: angiotensin I-converting enzyme
# ASSAY INFO: Percent inhibition of pressor response to angiotensin I in unanesthetized rats after oral administration (ACE inhibition in vivo)
# Parameters: species or system Male Wistar strain rats
# REPORTED CONDITIONS: 85 min after oral dose; mg/kg: 2 1.8, 2A 1.3, 2B 1.8, 22 1.5, 22A 1.0, 22B 1.4, 32 1.7, 32C 1.3, 64 1.9
# binning rule on Inhibition (%) of pressor response to angiotensin I: band A (below 30%), band B (30% to below 40%), band C (40% or more)

Take a look at these entries with their results.
Q: # bin label for Cc1ccc(C(=O)SC[C@@H](C)C(=O)N2CSC[C@H]2C(=O)O)cc1 [Compound 22]
Ans: band C

Q: # bin label for O=C(O)[C@@H]1CSC(c2ccccc2O)N1C(=O)CCS (stereo partly drawn) [Compound 32C]
Ans: band B

***
Q: # bin label for C[C@H](CSC(=O)c1ccccc1)C(=O)N1C(C(=O)O)CCC1c1ccccc1O (stereo partly drawn) [Compound 2B]
Ans: band A

Q: # bin label for Cc1ccc(C(=O)SC[C@@H](C)C(=O)N2C(C(=O)O)CCC2c2ccccc2O)cc1 (stereo partly drawn) [Compound 2]
Ans: band C

Q: # bin label for C[C@H](CS)C(=O)N1CSC[C@H]1C(=O)O [Compound 22A]
Ans: band A

Q: # bin label for CC(=O)Oc1ccccc1C1SC[C@@H](C(=O)O)N1C(=O)CCSC(C)=O (stereo partly drawn) [Compound 32]
Ans: band C

Q: # bin label for C[C@H](CSC(=O)c1ccccc1)C(=O)N1CSC[C@H]1C(=O)OCOC(=O)C(C)(C)C [Compound 64]
Ans: band B

---

# System: angiotensin I-converting enzyme
# ASSAY INFO: Percent inhibition of pressor response to angiotensin I in unanesthetized rats after oral administration (ACE inhibition in vivo)
# Parameters: species or system Male Wistar strain rats
# REPORTED CONDITIONS: 105 min after oral dose; mg/kg: 2 1.8, 2A 1.3, 2B 1.8, 22 1.5, 22A 1.0, 22B 1.4, 32 1.7, 32C 1.3, 64 1.9
# binning rule on Inhibition (%) of pressor response to angiotensin I: low (below 20%), middle (20% to below 30%), high (30% or more)

Take a look at these entries with their results.
Q: # bin label for CC(=O)Oc1ccccc1C1SC[C@@H](C(=O)O)N1C(=O)CCSC(C)=O (stereo partly drawn)
Ans: middle

Q: # bin label for C[C@H](CS)C(=O)N1C(C(=O)O)CCC1c1ccccc1O (stereo partly drawn)
Ans: middle

Q: # bin label for "Cc1ccc(C(=O)SC[C@@H](C)C(=O)N2CSC[C@H]2C(=O)O)cc1"
Ans: high

Q: # bin label for C[C@H](CSC(=O)c1ccccc1)C(=O)N1C(C(=O)O)CCC1c1ccccc1O (stereo partly drawn)
Ans: low

Q: # bin label for C[C@H](CS)C(=O)N1CSC[C@H]1C(=O)O [Compound 22A]
Ans: low

Q: # bin label for C[C@H](CSC(=O)c1ccccc1)C(=O)N1CSC[C@H]1C(=O)O [Compound 22B]
Ans: middle

***
Q: # bin label for Cc1ccc(C(=O)SC[C@@H](C)C(=O)N2C(C(=O)O)CCC2c2ccccc2O)cc1 (stereo partly drawn)
Ans: high

Q: # bin label for "C[C@H](CSC(=O)c1ccccc1)C(=O)N1CSC[C@H]1C(=O)OCOC(=O)C(C)(C)C"
Ans: middle

---

List of Inhibition (%) of pressor response to angiotensin I values.
# Tested on: angiotensin I-converting enzyme
# ASSAY INFO: Percent inhibition of pressor response to angiotensin I in unanesthetized rats after oral administration (ACE inhibition in vivo)
# Design: species or system Male Wistar strain rats
# REPORTED CONDITIONS: 75 min after oral dose; mg/kg: 2 1.8, 2A 1.3, 2B 1.8, 22 1.5, 22A 1.0, 22B 1.4, 32 1.7, 32C 1.3, 64 1.9
# Experimental: As recently it has been clear that the compounds inhibiting angiotensin I-converting enzyme may be the curative potency against both renal hypertension and essential hypertension, the compounds of this invention are evaluated as antihypertensive agents by the following method. Male Wistar strain rats weighing 200-300 g were used. Under ether anesthesia, polyethylene cannulae are inserted into carotid artery and jugular vein. […]
The figure you give is taken to be in %; do not add the unit.

Examples with answers:
Q: GET /values?readout=Inhibition (%) of pressor response to angiotensin I&system=angiotensin I-converting enzyme&item= "Cc1ccc(C(=O)SC[C@@H](C)C(=O)N2CSC[C@H]2C(=O)O)cc1"
Ans: 53.5

Q: GET /values?readout=Inhibition (%) of pressor response to angiotensin I&system=angiotensin I-converting enzyme&item= C[C@H](CS)C(=O)N1C(C(=O)O)CCC1c1ccccc1O (stereo partly drawn)
Ans: 20.0

Q: GET /values?readout=Inhibition (%) of pressor response to angiotensin I&system=angiotensin I-converting enzyme&item= Cc1ccc(C(=O)SC[C@@H](C)C(=O)N2C(C(=O)O)CCC2c2ccccc2O)cc1 (stereo partly drawn)
Ans: 54.5

Q: GET /values?readout=Inhibition (%) of pressor response to angiotensin I&system=angiotensin I-converting enzyme&item= C[C@H](CSC(=O)c1ccccc1)C(=O)N1C(C(=O)O)CCC1c1ccccc1O (stereo partly drawn)
Ans: 31.6

Q: GET /values?readout=Inhibition (%) of pressor response to angiotensin I&system=angiotensin I-converting enzyme&item= C[C@H](CSC(=O)c1ccccc1)C(=O)N1CSC[C@H]1C(=O)O [Compound 22B]
Ans: 36.4

Q: GET /values?readout=Inhibition (%) of pressor response to angiotensin I&system=angiotensin I-converting enzyme&item= "C[C@H](CSC(=O)c1ccccc1)C(=O)N1CSC[C@H]1C(=O)OCOC(=O)C(C)(C)C"
Ans: 37.2

Q: GET /values?readout=Inhibition (%) of pressor response to angiotensin I&system=angiotensin I-converting enzyme&item= O=C(O)[C@@H]1CSC(c2ccccc2O)N1C(=O)CCS (stereo partly drawn) [Compound 32C]
Ans: 38.8

Q: GET /values?readout=Inhibition (%) of pressor response to angiotensin I&system=angiotensin I-converting enzyme&item= C[C@H](CS)C(=O)N1CSC[C@H]1C(=O)O [Compound 22A]
Ans: 30.2

Now take the following compound into account.
Q: GET /values?readout=Inhibition (%) of pressor response to angiotensin I&system=angiotensin I-converting enzyme&item= CC(=O)Oc1ccccc1C1SC[C@@H](C(=O)O)N1C(=O)CCSC(C)=O (stereo partly drawn)
Ans: 57.2
